test: in vivo; details: both, Sprague-Dawley, rat, in vivo, po
endpointName: NOAEL

So what does the record say about NOAEL for CC(C)OC(=O)N[C@H]1Cc2c(n(Cc3ccccn3)c3ccc(C#N)cc23)C1 (single isomer, unassigned) ?
< 15 mg/kg/day

====

test: 52 Week Toxicity and Toxicokinetic Study in Dogs; type: in vivo, dog; details: female, beagle, dog, in vivo, po; females, 100 mg/kg, after 361 days of dosing; read-out: AUC0-24 h
endpointName: AUC(0-t) (ng·h/mL)
# output: bare number, implied unit ng·h/mL

So what does the record say about AUC(0-t) for CC(C)OC(=O)N[C@H]1Cc2c(n(Cc3ccccn3)c3ccc(C#N)cc23)C1 (single isomer, unassigned) ?
31500
